// reported concentration at 0.25 h for each item listed
- assay-overview: Mouse blood levels after intramuscular administration (Table 3)
- Assay type: in vivo
- condition-parameters: im, 10 mg/kg, 15', read-out: Blood level
Counter-ions that a name gives are not always drawn.

{"columns": ["molecule", "concentration at 0.25 h"],
 "data": [
  ["CCN1CCN(C(=O)N[C@@H](C(=O)N[C@@H]2C(=O)N3C(C(=O)O)=C(CSc4nnnn4C)CS[C@H]23)c2ccc(O)cc2)C(=O)C1=O [Cefoperazone, reference compound]", "3500 ng/mL"]
]}

Kindly review the next molecule as well.
concentration at 0.25 h in this record for CN(C)Cc1ccc[n+](CC2=C(C(=O)[O-])N3C(=O)C(NC(=O)[C@H](NC(=O)c4cnc5cccnc5c4O)c4ccc(O)cc4)C3SC2)c1 (some centres unmarked) [BB-S 651, Hydrochloride] : 5000 ng/mL
